- Assay method text: chemical genetic growth profiling, strain panel (AID 1159580);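 also: tested at 20 µM; growth read once vehicle control cultures reached saturation at 30 °C; 1 = growth at the plate median or of vehicle wells; lower values mean less growth of the strain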
- Condition: S. cerevisiae deletion strains, growth OD, locus YBR023C, strain chs3
The campaign covered roughly 5,500 compounds. About 2,000 (36%) were called active. About 18% were inconclusive and are not listed. Rule as the data show it: active = normalized growth mostly below about 0.91 (no sharp cut-off); inconclusive = no clear call, values can overlap the other calls; inactive = mostly above about 0.92. The list shows a part of the results.
// one of Yes for active, No for inactive, no free text

Give the logged outcome of this assay for the following compound: CC(=O)Oc1ccc(-c2cc(=O)c3c(OC(C)=O)cc(OC(C)=O)cc3o2)cc1 No

# lookup: test call for CC(=O)[C@H]1CCC2C3CC=C4C[C@@H](O)CC[C@]4(C)C3CC[C@@]21C (some centres undefined) No

Identify the outcome logged in this assay for the compound shown: COC(=O)C1=C(C)NC(C)=C(C(=O)OC)C1c1ccccc1[N+](=O)[O-] Yes

Assay result, entry CC(C)c1ccc2c(c1O)CC[C@H]1C3=C(CC[C@]21C)C(=O)OC3 — outcome? No

Dear colleague, could you share the recorded outcome for CCC(/C=C/[C@@H](C)[C@H]1CCC2C3CC=C4C[C@@H](O)CC[C@]4(C)C3CC[C@@]21C)C(C)C (some centres undefined) when you have a moment? No

For O=c1c2ccccc2oc2ccccc12 , what call appears in the results of this test? No

Hi, do you know how COC(=O)C1=C(C)NC(C)=C(C(=O)OCCN(C)Cc2ccccc2)C1c1cccc([N+](=O)[O-])c1 (centres undefined) came out in this test? No

Dear colleague, could you share the recorded outcome for COc1ccc(-c2cc(=O)c3c(OC(C)=O)cc(OC(C)=O)cc3o2)cc1 when you have a moment? No

Which outcome was assigned to CC(=O)Oc1c(-c2ccccc2)oc2c(CC=C(C)C)c3c(c(OC(C)=O)c2c1=O)C=CC(C)(C)O3 in this test? No

###

- Assay method text: chemical genetic growth profiling, strain panel (AID 1159580);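 also: tested at 20 µM; growth read once vehicle control cultures reached saturation at 30 °C; 1 = growth at the plate median or of vehicle wells; lower values mean less growth of the strain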
- Condition: S. cerevisiae deletion strains, growth OD, locus YAL013W, strain DEP1
The whole screen tested about 5,500 compounds, of which about 2,000 (36%) were called active. Inconclusive results (about 18%) are left out. Rule as the data show it: active = normalized growth mostly below about 0.91 (no sharp cut-off); inconclusive = no clear call, values can overlap the other calls; inactive = mostly above about 0.92. The list shows a part of the results.
Your response should consist of one outcome taken from yes (1) = active, no (0) = inactive

Please let me know the test result on file for O=C1CCCc2c1c1ccccc1n2Cc1ccccc1 . no (0)

Outcome logged for CC(=O)O[C@@H]1CC2C(C)(C)C(=O)CC[C@]2(C)C2CC[C@@]3(C)[C@H](c4ccoc4)OC(=O)C4OC43[C@@]21C (some centres undefined) in this assay: no (0)

Please let me know the test result on file for CN1CNc2c(c(=O)n(C)c(=O)n2C)C1 . no (0)

Short answer needed: outcome of this test for CCCCCCCCCCc1ccc(-c2ccccc2)cc1 ? no (0)

Would you mind telling me which call this test gave Cn1c(=O)c2[nH]c(C3CCCC3)nc2n(C)c1=O ? no (0)

Please indicate how the test categorized CC(C)(Oc1ccc(Cl)cc1)C(=O)O . no (0)

Per the assay record, what outcome was assigned to CC(N)Cc1ccc(O)cc1 (centres undefined) ? no (0)

State the result this test recorded for CN1CCc2c(c3ccccc3n2Cc2ccccc2)C1 . no (0)

Name the outcome recorded for CC(=O)[C@H]1CCC2C3CC=C4C[C@@H](O)CC[C@]4(C)C3CC[C@@]21C (some centres undefined) in the assay. no (0)

State the result this test recorded for CC1NC(=O)NC1=O (centres undefined) . no (0)

Identify the outcome logged in this assay for the compound shown: CCCCCCCCCc1ccc(O)cc1 yes (1)

Could you kindly confirm the outcome this assay logged for O=c1c(-c2ccccc2)coc2cc(O)cc(O)c12 ? yes (1)

Which outcome did this test record for the compound O=C(Nc1ccccc1SCc1cccc(C(F)(F)F)c1)c1c(F)cccc1Cl ? no (0)

Would you mind telling me which call this test gave CCC(/C=C/[C@@H](C)[C@H]1CCC2C3CC=C4C[C@@H](O)CC[C@]4(C)C3CC[C@@]21C)C(C)C (some centres undefined) ? no (0)

// outcome(item) with item = CC(=O)Oc1cc(OC(C)=O)c2c(=O)c(-c3ccccc3)coc2c1 no (0)

Outcome logged for CC(=O)OC1CC2C(C)(C)CCCC2(C)C2CCC3(C)C(c4ccoc4)OC(=O)C4OC43C12C (centres undefined) in this assay: no (0)

What did this assay record as the result for CCCCc1ccc(C(=O)O)nc1 ? no (0)

What is the recorded call for this compound in the test? CCN1CN=C(SCc2ccc(C)cc2)NC1 no (0)

Outcome? CCCCCCCCCCCCCCCC[n+]1ccccc1 yes (1)

Record lookup: outcome of this test for Cc1c(C)c(C)c(CO)c(C)c1C ? no (0)

Please state the recorded outcome for this compound: CC1=CCc2c(cc3oc(C)cc(=O)c3c2O)OC1 yes (1)

Record lookup: outcome of this test for Cc1cc(=O)c2c(O)c3c(cc2o1)OC(C)(C)CC3 ? no (0)

Kindly provide the recorded test outcome for the following compound: O=c1c(-c2ccc(O)cc2)coc2cc(O)cc(O)c12 no (0)

// return assay outcome for CN1CCc2ccccc2Cc2[nH]c3ccccc3c2CC1 no (0)
